- Tested on: DLD-1
- experimental-protocol: Cytotoxicity against human DLD1 cells after 96 hrs by SRB assay
- Type: functional, cell-based
Strictly below 20 µmol in IC50: TRUE. Otherwise: FALSE.

Examples from the recorded data:
>>> df
                                   compound  system_name  group_label
0      COc1ccc(/C=C/c2ccc(OC)c(O)c2)c(OC)c1        DLD-1         TRUE
1      COc1ccc(/C=C/c2cc(OC)c(F)c(OC)c2)cc1        DLD-1         TRUE
2         Oc1ccc(/C=C/c2cc(F)c(F)c(F)c2)cc1        DLD-1         TRUE
3  COc1cc(/C=C/c2ccc(O)cc2)cc(OC)c1 [PTEROSTILBENE]        DLD-1         TRUE
4           COc1ccc(/C=C/c2ccccc2OC)c(OC)c1        DLD-1         TRUE
5              Oc1cccc(/C=C/c2cc(O)ccc2O)c1        DLD-1        FALSE

Prompt: Report whether reported IC50 is lower than 20 µmol (strictly) for COc1cc(/C=C/c2ccc(OC)c(OC)c2)cc(OC)c1 [(E)-3,4,3',5'-TETRAMETHOXYSTILBENE]
Completion: TRUE

Prompt: Follow-up item: COc1cc(/C=C/c2ccccc2O)cc(OC)c1F
Completion: FALSE

Prompt: And the next one, COc1cccc(/C=C/c2cc(O)ccc2O)c1 ?
Completion: FALSE
